experimentalSystem: Human immunodeficiency virus type 1 integrase (Human immunodeficiency virus 1)
Sequence (Q7ZJM1 whole entry): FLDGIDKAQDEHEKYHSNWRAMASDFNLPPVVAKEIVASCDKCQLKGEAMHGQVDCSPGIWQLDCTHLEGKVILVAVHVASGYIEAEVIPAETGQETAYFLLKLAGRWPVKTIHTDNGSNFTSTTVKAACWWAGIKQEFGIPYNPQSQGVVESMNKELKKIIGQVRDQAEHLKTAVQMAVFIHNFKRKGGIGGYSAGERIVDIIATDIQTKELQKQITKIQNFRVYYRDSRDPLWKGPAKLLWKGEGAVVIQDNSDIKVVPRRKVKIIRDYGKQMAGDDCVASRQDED
assayOverview: Inhibition of wild-type HIV1 integrase 3'-end processing activity
Here, each record is paired with measured IC50 data.
Note: unit µM is implicit; provide only the numeric part.

Example entries and their recorded answers appear below.
>  <smilesEntry>
Cc1cc(O)c(C(=O)/C=C/c2ccc(F)cc2)c(=O)o1

>  <experimentalSystem>
Human immunodeficiency virus type 1 integrase (Human immunodeficiency virus 1)

>  <IC50 [µM]>
64

$$$$
>  <smilesEntry>
COc1ccc(/C=C/C=C/C2=[O+][B-](F)(F)Oc3cc(C)oc(=O)c32)cc1

>  <experimentalSystem>
Human immunodeficiency virus type 1 integrase (Human immunodeficiency virus 1)

>  <IC50 [µM]>
11

$$$$
>  <smilesEntry>
Cc1cc(O)c(C(=O)/C=C/c2ccc(Br)s2)c(=O)o1

>  <experimentalSystem>
Human immunodeficiency virus type 1 integrase (Human immunodeficiency virus 1)

>  <IC50 [µM]>
65

$$$$

Consider the additional molecule presented here.
Item under review: Cc1cc(O)c(C(=O)/C=C/c2ccc(N(C)C)s2)c(=O)o1 . Reported IC50?
19

###

assayOverview: Cytotoxicity against human HCT 116 cells after 72 hrs by MTT assay
Assay type: cell-based
conditionsUsed: hct-116, 72 h
measurementType: Activity

>  <smilesEntry>
Cc1cc(O)c(C(=O)/C=C/c2ccc(F)cc2)c(=O)o1

>  <result>
> 10 µM

$$$$
>  <smilesEntry>
Cc1cc2c(c(=O)o1)C(/C=C/c1ccc(N(C)C)s1)=[O+][B-](F)(F)O2

>  <result>
> 10 µM

$$$$

Item under review: COc1ccc(/C=C/C=C/C2=[O+][B-](F)(F)Oc3cc(C)oc(=O)c32)cc1 . Reported Activity?
> 10 µM

Likewise for CN(C)c1ccc(/C=C/C(=O)c2c(O)cc(/C=C/c3ccc(N(C)C)cc3)oc2=O)cc1 ?
> 10 µM

Likewise for COc1ccc(/C=C/C=C/C(=O)c2c(O)cc(C)oc2=O)cc1 ?
> 10 µM

Likewise for COc1ccc(/C=C/C(=O)c2c(O)cc(/C=C/c3ccc(N(C)C)cc3)oc2=O)cc1 ?
> 10 µM

Likewise for Cc1cc(O)c(C(=O)/C=C/c2ccc(Br)cc2)c(=O)o1 ?
> 10 µM

Likewise for Cc1cc2c(c(=O)o1)C(/C=C/c1ccc(Br)s1)=[O+][B-](F)(F)O2 ?
> 10 µM

Likewise for Cc1cc(O)c(C(=O)/C=C/c2ccc(Br)s2)c(=O)o1 ?
> 10 µM

Likewise for Cc1cc2c(c(=O)o1)C(/C=C/c1ccc(F)cc1)=[O+][B-](F)(F)O2 ?
> 10 µM

Likewise for Cc1cc(O)c(C(=O)/C=C/c2ccc(N(C)C)s2)c(=O)o1 ?
> 10 µM

Likewise for COc1ccc(/C=C/C2=[O+][B-](F)(F)Oc3cc(/C=C/c4ccc(N(C)C)cc4)oc(=O)c32)cc1 ?
> 10 µM

Likewise for Cc1cc(O)c(C(=O)/C=C/C=C/c2ccc(N(C)C)cc2)c(=O)o1 ?
> 10 µM

Likewise for Cc1cc2c(c(=O)o1)C(/C=C/C=C/c1ccc(N(C)C)cc1)=[O+][B-](F)(F)O2 ?
> 10 µM

Likewise for Cc1cc2c(c(=O)o1)C(/C=C/C=C1/N(C)c3ccccc3C1(C)C)=[O+][B-](F)(F)O2 ?
> 10 µM
